Values were extracted from ChEMBL document CHEMBL5058577.

# Test system: HEK-293T
# measurement-protocol: Multiplex assay against HEK293T
# Type: toxicity, cell-based
# cond: human, 24 h, 1 µM, compound concentration 1 uM, replicate 1
Entries and their measured Population Normal (%) follow.

| molecule | Population Normal (%) |
| --- | --- |
| Cc1cccc(NC(=O)CN2CCC(c3ccccn3)CC2)c1.Cl.Cl | 96 |
| CC(=O)Nc1cccc2c1c(Sc1ccc(Cl)cc1)c(C)n2CC(=O)O [AZD1981] | 97 |
| O=C1[C@H](Cc2ccc(O)cc2)N2C(=O)CCN(C(=O)NCc3ccccc3)[C@H]2CN1Cc1cccc2ccccc12 | 92 |
| Br.CS(=O)(=O)Nc1c(O)ccc2c1CCCC2C1=NCCN1 (stereo not given) | 94 |
| COc1ccccc1N1CCN(C[C@@H](C(=O)NC(C)(C)C)c2ccccc2)CC1.Cl.Cl | 95 |
| Cc1cnc(-c2cc(N3CCN(C(=O)CCS(C)(=O)=O)CC3)ncc2Cl)c(C)c1 | 97 |
| CN1CCN(c2cc(-c3ccccc3)nc(N)n2)CC1 | 95 |
| O=C(NCCN1CCC(n2c(=O)[nH]c3cc(Cl)ccc32)CC1)c1ccc(F)cc1 [HALOPEMIDE] | 96 |
| CCCCC(=O)N(Cc1ccc(-c2ccccc2-c2nnn[nH]2)cc1)[C@H](C(=O)O)C(C)C | 94 |
| CC(/C=C1\SC(=S)N(CCCC(=O)Nc2ccc(C(=O)O)c(O)c2)C1=O)=C\c1ccccc1 | 95 |
| CCCOc1ccc2[nH]cc(C3=CCNCC3)c2n1.Cl | 96 |
| CN(C)C(=O)Cn1cc(-c2ccc(-c3cncc4ccccc34)cc2)cn1 | 93 |
| COC[C@@H](c1ccc(C(F)(F)F)cc1)N1CCN(C2(C)CCN(C(=O)c3c(C)ncnc3C)CC2)C[C@@H]1C.O=C(O)/C=C\C(=O)O [VICRIVIROC MALEATE] | 93 |
| Cc1noc(-c2ccc(-c3ccc(CC(=O)O)cc3)cc2)c1NC(=O)O[C@H](C)c1ccccc1Cl | 94 |
| Cl.N=C(N)NC(=O)Cc1c(Cl)cccc1Cl [GUANFACINE HYDROCHLORIDE] | 95 |
| CCCCCC(O)/C=C/[C@H]1C(=O)CC(O)C1C/C=C\CCCC(=O)O (stereo not given in full) | 96 |
| C[C@H](N)COC(=O)[C@@H](CCCCN)NC(=O)Cc1c(-c2ccc3ccccc3c2)[nH]c2c1ccc1ccccc12 | 95 |
| Cc1onc(-c2ccccc2Cl)c1C(=O)N(C)c1ccc(Cl)cc1 | 94 |
| CC[C@@H](C)Nc1nc(C)nc2c(-c3ccc(OC)nc3C)c(C)nn12 [PEXACERFONT] | 96 |
| CCCCC1=NC2(CCCC2)C(=O)N1Cc1ccc(-c2ccccc2-c2nnn[nH]2)cc1 [IRBESARTAN] | 95 |

###

# Test system: Fibroblast
# measurement-protocol: Multiplex assay against human fibroblast
# Assay type: toxicity, cell-based
# cond: 24 h, 10 µM, compound concentration 10 uM, replicate 1
Labelling: Population Tubulin-Different-Phenotype (%) reported below 60% becomes satisfied; at or above becomes not satisfied.

| molecule | category |
| --- | --- |
| CCCCC1=NC2(CCCC2)C(=O)N1Cc1ccc(-c2ccccc2-c2nnn[nH]2)cc1 [IRBESARTAN] | satisfied |
| CC(C)c1noc(N2CCC(COc3ccc(-c4ccc(S(C)(=O)=O)cc4)nc3)CC2)n1 [GSK-1292263] | satisfied |
| COc1cccc2c1c(NS(=O)(=O)c1ccc(Cl)s1)nn2Cc1cccc(CNC(=O)C(C)(C)O)c1 | satisfied |
| Cc1c(CC(=O)O)c2cccnc2n1Cc1ccc(S(C)(=O)=O)cc1C(F)(F)F [FEVIPIPRANT] | satisfied |
| CN[C@@H](C)C(=O)N[C@H](C(=O)N1CCC[C@H]1C(=O)Nc1snnc1-c1ccccc1)C1CCCCC1 [GDC-0152] | not satisfied |
| CC(C)COc1ccc(CNC(=O)N(Cc2ccc(F)cc2)C2CCN(C)CC2)cc1 [PIMAVANSERIN] | not satisfied |
| Cc1cnc(-c2cc(N3CCN(C(=O)CCS(C)(=O)=O)CC3)ncc2Cl)c(C)c1 | satisfied |
